// data source = paper PMC6715699

For each record, write down the corresponding Kd.
- System Name: CSL (RBP-Jkappa) (UniProt Q06330 1-500)
- Sequence (Q06330 whole entry): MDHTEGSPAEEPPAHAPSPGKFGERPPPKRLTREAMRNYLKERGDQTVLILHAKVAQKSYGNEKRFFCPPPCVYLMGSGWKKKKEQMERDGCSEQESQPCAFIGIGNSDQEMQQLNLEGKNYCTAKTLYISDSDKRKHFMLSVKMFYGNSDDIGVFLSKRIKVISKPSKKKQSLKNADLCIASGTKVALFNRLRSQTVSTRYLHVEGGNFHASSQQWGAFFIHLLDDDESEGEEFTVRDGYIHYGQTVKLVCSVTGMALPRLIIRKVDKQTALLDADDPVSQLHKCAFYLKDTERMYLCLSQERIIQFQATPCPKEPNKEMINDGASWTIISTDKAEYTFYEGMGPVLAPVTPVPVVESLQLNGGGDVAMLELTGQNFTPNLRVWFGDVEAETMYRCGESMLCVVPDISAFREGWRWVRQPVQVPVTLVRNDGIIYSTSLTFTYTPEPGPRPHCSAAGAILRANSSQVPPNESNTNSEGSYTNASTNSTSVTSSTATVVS
- Assay Summary: MST; 200 nM labelled CSL; MST in standard MST buffer (composition and pH not given), premium-treated capillaries, Monolith NT.115; 20 min at room temperature stated for the protein mixes
- Condition Details: protein: commercial; tags: RED-NHS dye when labelled; blunt
Numbers only, in nM.

>  <Binder>
SCRAMBLED (dsDNA) DNA 1: GCTACTCATACCTAGAACG DNA 2: CGTTCTAGGTATGAGTAGC

>  <Unit Symbol>
nM

>  <Kd>
3380

$$$$

Query binder follows.
Ask: Recorded Kd for CSL specific motif (dsDNA) DNA 1: GTTACTGTGGGAAAGAAAG DNA 2: CTTTCTTTCCCACAGTAAC , please?
Result: 121
